tested-system: Kir1.1 (ROMK1) (Homo sapiens (Human))
Sequence (P48048 whole entry): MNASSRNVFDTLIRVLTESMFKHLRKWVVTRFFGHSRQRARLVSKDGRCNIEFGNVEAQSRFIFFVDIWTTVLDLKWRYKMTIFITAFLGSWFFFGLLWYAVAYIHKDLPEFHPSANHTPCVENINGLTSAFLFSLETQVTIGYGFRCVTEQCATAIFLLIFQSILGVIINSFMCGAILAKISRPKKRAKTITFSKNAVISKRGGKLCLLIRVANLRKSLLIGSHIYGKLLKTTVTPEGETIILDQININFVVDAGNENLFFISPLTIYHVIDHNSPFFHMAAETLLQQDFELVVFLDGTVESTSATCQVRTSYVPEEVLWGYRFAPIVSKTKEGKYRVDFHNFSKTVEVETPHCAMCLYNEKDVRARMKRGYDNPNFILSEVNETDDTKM
protocol-summary: ROMK electrophysiology assay (IonWorks Quattro whole cell voltage clamp)
Assay type: cell-based
test-parameters: Chinese hamster ovary cells stably expressing Kir1.1; block during voltage step to 0 mV; 6 min compound incubation; read-out: ROMK Electrophysiology Assay IC50
For each record, write down the corresponding pIC50.
Scale note: pIC50 = -log10(concentration in M).

**Query** Indicate the recorded pIC50 value for this molecule: Cc1c(CCN2CCN(C(=O)C3CCc4nc(-n5cnnn5)ccc43)CC2)ccc2c1COC2=O (single isomer, unassigned) [Example 96]
**Result** 7.21

**Query** Indicate the recorded pIC50 value for this molecule: Cc1c([C@@H](O)CN2CCN(C(=O)Cc3ccc(-n4cnnn4)nc3)C3CC32)ccc2c1COC2=O (stereo partly drawn) [Example 217]
**Result** 7.25

**Query** Indicate the recorded pIC50 value for this molecule: N#Cc1ccc(CCN2CCN(C(=O)Cc3ccc(-n4cnnn4)cc3)CC2)cc1F [Example 39]
**Result** 7.20
